# Study Target: the molecule itself
# Measurement Notes: dimer formation of the expressed construct (self-association), Western blot of transfected cells
Measure Name: binding result

FcTregV20 (other, also called Construct V20) DKTHTCPPCPAPELLGGPSVFLFPPKPKDTLMISRTPEVTCVVVDVSHEDPEVKFNWYVDGVEVHNAKTKPREEQYNSTYRVVSVLTVLHQDWLNGKEYKCKVSNKALPAPIEKTISKAGGLVQPGGSLRLSCAASGFTFNQVSLTCLVKGFYPSDIAVEWESNGQPENNYKTTPPVLDSDGSKTLYLQMNSLRAEDTAKHVFSCSVMHEALHNHYTQKSLSLSPGK: binds
FcTregV23 (other, Human IgG1 Fc-part with Treg084 in frame A; also called Construct V23) DKTHTCPPCPAPELLGGPSVFLFPPKPKDTLMISRTPEVTCVVVDVSHEDPEVKFNWYVDGVEVHNAKTKPREEQYNSTYRVGTDFTLTISSLQPEDEYKCKVSNKALPAPIEKTISKAKGQPREPQVYTLPPSRDELTKNQVSLTCLVKGFYPSDIAVEWESNGQPENNYKTTPPVLDSDGSFFLYSKLTVDKSRWQQGNVFSCSVMHEALHNHYTQKSLSLSPGK: binds
